target.under.test: T1, STXBP5 peptide complexed with HLA-A*02:01 on T2 cells (human)
T1 construct: whole, on cells
assay.remarks: flow cytometry, peptide-loaded T2 cells;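 further: binding of single-chain Fv antibody constructs, raised in XenoMouse, to peptide-pulsed T2 cells measured by flow cytometry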
assay.readout: Signal/background
In your answer, state the number alone without any accompanying words.

>  <binder>
18089-D11 (scFv, scFv in bacterial lysate, detected with anti-Flag M2) scFv: EVQLLESGPVLVKPTQTLTLTCTFSGFSFTTHKMGVDWIRQPPGKALEWLALIYWNDDKRYNPSLQSRLTITKDTSKNQVVLTMTNMDPVDTATYYCAYRRYNWNYENWFDPWGQGTLVTVSSGGGGSGGGGSGGGGSELVMTQSPSSLSASVGDRVTITCRASQSISNYFNWYQQKPGKAPKLLIYAASSLQSGVPSRFSGSGSGTDFTLTISSLQPEDFATYYCQQSYITPFTFGGGTKLEIK

>  <Signal/background>
1.1

$$$$

Memo: 18182-E1 (scFv, scFv in bacterial lysate, detected with anti-Flag M2) scFv: EVQLLESGGGLVQPGGSLRLSCAASGFTFSSHAMSWVRQAPGKGLEWVSAISGSGGGTYNADSVKGRFTISRDNSKNTLYLQMNSLRAEDTAAYYCVTGKGVHLGFDYWGQGTLVTVSSGGGGSGGGGSGGGGSELVLTQPPSVSVAPGQTARITCGGNNIGSKSVHWYQQKPGQAPVMVVYDDNDRPSGIPERFSGSNSGNTATLTISRVEAGDEADYYCQVWDSSSDHVVFGGGTKLTVL , reported Signal/background: 1

Signal/background in this record for 18182-G8 (scFv, scFv in bacterial lysate, detected with anti-Flag M2) scFv: EVQLLESGGGLVKPGGSLRLSCAASGFTFSSYAMNWVRQAPGKGLEWVSAISGSGGGTYYADSGKGRFTISRDNSKNTLYLQMNSLRAEDTAVYYCATGKGVHLNFDYWGQGTLVTVSSGGGGSGGGGSGGGGSELVLTQPPSVSVAPGQTARITCGGNNIGSKSVHWYQQKPGQAPVMVVYDDNDRPSGIPERFSGSNSGNTATLTISRVEAGDEADYYCQVWDSSSDHVVFGGGTKLTVL : 1
